tested on: SW872; experiment: relative viability vs DMSO control (72 h) (fraction); higher = more viable cells; details: 0.01372 µM
Where a name gives a salt, the structure may show the parent alone.
RESULT TYPE: relative viability

Some molecules with recorded relative viability:
- MOLECULE: "CCc1cc2c(cc1N1CCC(N3CCOCC3)CC1)C(C)(C)c1[nH]c3cc(C#N)ccc3c1C2=O [Alectinib]"
  RESULT: 1.07
- MOLECULE: "COc1cccc2c1C(=O)c1c(O)c3c(c(O)c1C2=O)C[C@@](O)(C(=O)CO)C[C@@H]3O[C@H]1C[C@H](N)[C@H](O)[C@H](C)O1 [Doxorubicin Hydrochloride]"
  RESULT: 1.06
- MOLECULE: "CCCS(=O)(=O)Nc1ccc(F)c(C(=O)c2c[nH]c3ncc(-c4ccc(Cl)cc4)cc23)c1F [Vemurafenib]"
  RESULT: 1.07

query: Bench note: what relative viability did Cn1cc(-c2cc3c(N4CCN(c5ncc([C@@](C)(N)c6ccc(F)cc6)cn5)CC4)ncnn3c2)cn1 [Avapritinib] show?
result: 0.972

query: How about COc1cc2c(Oc3ccc4[nH]c(C)cc4c3F)ncnc2cc1OCCCN1CCCC1 [Cediranib] ?
result: 1.06

query: Can you check CC1(C)CNc2cc(NC(=O)c3cccnc3NCc3ccncc3)ccc21 [Motesanib] next?
result: 0.95

query: Same for Cc1nc(NC(=O)N2CCC[C@H]2C(N)=O)sc1-c1ccnc(C(C)(C)C(F)(F)F)c1 [Alpelisib]
result: 0.965

query: Item: COc1cc2/c(=N/c3ccc(Br)cc3F)nc[nH]c2cc1OCC1CCN(C)CC1 [Vandetanib]
result: 1.03

###

Attribute: relative viability
test system: MES-SA; assay: relative viability vs DMSO control (72 h) (fraction); higher = more viable cells; conditions: 3.333 µM
No unit in the answer, please; the number alone is enough.

Recorded results for 5 molecules are shown here.
- MOLECULE: "CN1CCN(c2ccc3nc(-c4c(N)c5c(F)cccc5[nH]c4=O)[nH]c3c2)CC1 [Dovitinib]"
  relative viability: 0.191
- MOLECULE: "CC(C)N1CCN(Cc2cnc(-c3cc(-c4cccc5[nH]ccc45)cc4[nH]ncc34)o2)CC1 [Nemiralisib]"
  relative viability: 0.764
- MOLECULE: "Cc1ccc(F)c(NC(=O)Nc2ccc(-c3cccc4[nH]nc(N)c34)cc2)c1 [Linifanib]"
  relative viability: 0.75
- MOLECULE: "C=CC(=O)Nc1cccc(Oc2nc(Nc3ccc(N4CCN(C)CC4)cc3)nc3ccsc23)c1 [Olmutinib]"
  relative viability: 0.751
- MOLECULE: "CNC(=O)c1ccc(-c2cnc3ncc(Cc4ccc5ncccc5c4)n3n2)cc1F [Capmatinib]"
  relative viability: 0.867

query: Give its relative viability value. Item: Cc1nc(-c2cn3c(n2)-c2ccc(-c4cnn(C(C)(C)C(N)=O)c4)cc2OCC3)n(C(C)C)n1 [Taselisib]
result: 0.214

query: Check CO[C@H]1C[C@@H]2CC[C@@H](C)[C@@](O)(O2)C(=O)C(=O)N2CCCC[C@H]2C(=O)O[C@H]([C@H](C)C[C@@H]2CC[C@@H](OP(C)(C)=O)[C@H](OC)C2)CC(=O)[C@H](C)/C=C(\C)[C@@H](O)[C@@H](OC)C(=O)[C@H](C)C[C@H](C)/C=C/C=C/C=C/1C [Ridaforolimus] too.
result: 0.367

query: And CCc1cc2c(cc1N1CCC(N3CCOCC3)CC1)C(C)(C)c1[nH]c3cc(C#N)ccc3c1C2=O [Alectinib] ?
result: 0.968

query: Also O=C(Cc1ccc(-c2ccc(OCCN3CCOCC3)cc2)cn1)NCc1ccccc1 [KX2-391] , if possible.
result: 0.133

query: Quick one: CC(C)(C)c1cc(NC(=O)Nc2ccc(-c3cn4c(n3)sc3cc(OCCN5CCOCC5)ccc34)cc2)no1 [Quizartinib]
result: 0.602

###

# relative viability values compiled below
system: RD; experiment: relative viability vs DMSO control (72 h) (fraction); higher = more viable cells; conditions: 3.333 µM
Number, no unit, nothing else.

- SMILES INPUT: "C=CC(=O)N1CCC([C@@H]2CCNc3c(C(N)=O)c(-c4ccc(Oc5ccccc5)cc4)nn32)CC1"
  relative viability: 0.847
- SMILES INPUT: "CCCS(=O)(=O)Nc1ccc(F)c(C(=O)c2c[nH]c3ncc(-c4ccc(Cl)cc4)cc23)c1F"
  relative viability: 1.11
- SMILES INPUT: "CC(C)(C)c1cc(NC(=O)Nc2ccc(-c3cn4c(n3)sc3cc(OCCN5CCOCC5)ccc34)cc2)no1"
  relative viability: 0.942
- SMILES INPUT: "C[C@]1(O)C[C@@H](c2nc(-c3ccc4ccc(-c5ccccc5)nc4c3)c3c(N)nccn32)C1"
  relative viability: 0.633
- SMILES INPUT: "Cn1cc(-c2cc3c(N4CCN(c5ncc([C@@](C)(N)c6ccc(F)cc6)cn5)CC4)ncnn3c2)cn1"
  relative viability: 0.939
- SMILES INPUT: "O=C(Cc1ccc(-c2ccc(OCCN3CCOCC3)cc2)cn1)NCc1ccccc1"
  relative viability: 0.308
- SMILES INPUT: "CC(C)N1CCN(Cc2cnc(-c3cc(-c4cccc5[nH]ccc45)cc4[nH]ncc34)o2)CC1"
  relative viability: 0.692
- SMILES INPUT: "C=CC(=O)N1CCC[C@@H](n2nc(-c3ccc(Oc4ccccc4)cc3)c3c(N)ncnc32)C1"
  relative viability: 1.13
- SMILES INPUT: "Cc1nc(-c2cn3c(n2)-c2ccc(-c4cnn(C(C)(C)C(N)=O)c4)cc2OCC3)n(C(C)C)n1"
  relative viability: 0.426
- SMILES INPUT: "O=C(Nc1cnn2ccc(N3CCC[C@@H]3c3cc(F)ccc3F)nc12)N1CC[C@H](O)C1"
  relative viability: 1.1

query: Record lookup: for RD, what relative viability belongs to COc1cc2/c(=N/c3ccc(Br)cc3F)nc[nH]c2cc1OCC1CCN(C)CC1 ?
result: 0.139

query: What do we get for Cc1ccc(NC(=O)c2ccc(CN3CCN(C)CC3)cc2)cc1Nc1nc(-c2cccnc2)cs1 ?
result: 0.587

###

test system: SK-LMS-1; test: relative viability vs DMSO control (72 h) (fraction); higher = more viable cells; details: 0.00017 µM
Where a name gives a salt, the structure may show the parent alone.
The reader will find reported relative viability values listed item by item below.
Could you respond with only the numeric value?

Field: example entries. Status: answers known.
- MOLECULE: "Cc1cc(Nc2ncnc3ccc(NC4=NC(C)(C)CO4)cc23)ccc1Oc1ccn2ncnc2c1 [Tucatinib]"
  relative viability: 1.1
- MOLECULE: "Cc1cnc(Nc2ccc(OCCN3CCCC3)cc2)nc1Nc1cccc(S(=O)(=O)NC(C)(C)C)c1 [Fedratinib]"
  relative viability: 1.01
- MOLECULE: "N#CC[C@H](C1CCCC1)n1cc(-c2ncnc3[nH]ccc23)cn1 [Ruxolitinib]"
  relative viability: 1.03
- MOLECULE: "Cc1nc(-c2cn3c(n2)-c2ccc(-c4cnn(C(C)(C)C(N)=O)c4)cc2OCC3)n(C(C)C)n1 [Taselisib]"
  relative viability: 0.978
- MOLECULE: "CNC(=O)c1ccc(-c2cnc3ncc(Cc4ccc5ncccc5c4)n3n2)cc1F [Capmatinib]"
  relative viability: 1.02
- MOLECULE: "C[C@@H]1CCN(C(=O)CC#N)C[C@@H]1N(C)c1ncnc2[nH]ccc12 [Tofacitinib]"
  relative viability: 1.08
- MOLECULE: "COc1cccc2c1C(=O)c1c(O)c3c(c(O)c1C2=O)C[C@@](O)(C(=O)CO)C[C@@H]3O[C@H]1C[C@H](N)[C@H](O)[C@H](C)O1 [Doxorubicin Hydrochloride]"
  relative viability: 0.998
- MOLECULE: "C=CC(=O)Nc1cccc(Oc2nc(Nc3ccc(N4CCN(C)CC4)cc3)nc3ccsc23)c1 [Olmutinib]"
  relative viability: 1.06
- MOLECULE: "CC(C)NC(=O)C1CCC(n2c(NC(=O)c3ccc(F)cc3)nc3ccc(CN4CCC(C(C)(C)O)CC4)cc32)CC1 (centres undefined) [Belizatinib]"
  relative viability: 1.05
- MOLECULE: "COc1cc2c(Oc3ccc4[nH]c(C)cc4c3F)ncnc2cc1OCCCN1CCCC1 [Cediranib]"
  relative viability: 1.01

query: Tell me reported relative viability for C=CC(=O)N1CCC([C@@H]2CCNc3c(C(N)=O)c(-c4ccc(Oc5ccccc5)cc4)nn32)CC1 [Zanubrutinib] , tested with SK-LMS-1.
result: 0.996

query: Param item: CO[C@H]1C[C@@H]2CC[C@@H](C)[C@@](O)(O2)C(=O)C(=O)N2CCCC[C@H]2C(=O)O[C@H]([C@H](C)C[C@@H]2CC[C@@H](OP(C)(C)=O)[C@H](OC)C2)CC(=O)[C@H](C)/C=C(\C)[C@@H](O)[C@@H](OC)C(=O)[C@H](C)C[C@H](C)/C=C/C=C/C=C/1C [Ridaforolimus]
result: 1.01

query: Next molecule up: CC[C@H](Nc1ncnc2[nH]cnc12)c1nc2cccc(F)c2c(=O)n1-c1ccccc1 [Idelalisib]
result: 1.02

query: Ok, now CC(C)N1CCN(Cc2cnc(-c3cc(-c4cccc5[nH]ccc45)cc4[nH]ncc34)o2)CC1 [Nemiralisib]
result: 1.05
